# ASSAY_PROTOCOL: RPL19A-GFP modulators, yeast TOR pathway, confirmation, cell-based, S. cerevisiae, flow cytometry, cherry picks, mother/daughter gates (AID 2270)
# TEST_CONTEXT: S. cerevisiae RPL19A-GFP strain, 3 h, measured here: daughter cell gate, at 10 µM, stronger effect = lower value, 100 = same GFP as DMSO wells
MEASURED_ATTRIBUTE: GFP response vs DMSO

Q) Given the entry Cc1ccc(N2C(=O)CC(Sc3ncn[nH]3)C2=O)cc1C (configuration not stated) , report its measured GFP response vs DMSO.
A) 111%

Q) Please report the recorded GFP response vs DMSO for `Cc1onc(-c2ccccc2)c1C(=O)NC(=S)NNC(=O)c1ccco1` .
A) 101%

Q) Give its GFP response vs DMSO value. Item: `Cc1ccc(CN2CCSc3sccc3C2=O)cc1`
A) 83.1%

Q) Quick one: GFP response vs DMSO for CCCc1[nH]nc2c1C(c1ccc(Br)s1)C(C#N)=C(N)O2 (configuration not stated) ?
A) 96.7%

Q) I am curious: what GFP response vs DMSO value has been reported for `COc1ccc(NC(=O)COC(=O)c2ccco2)c([N+](=O)[O-])c1` ?
A) 98.5%

Q) What does the data say about its GFP response vs DMSO? Entry: O=C1C2C3C=CC(CNS(=O)(=O)c4ccccc4)(O3)C2C(=O)N1c1ccc(Cl)cc1 (configuration not stated)
A) 103%

Q) What value of GFP response vs DMSO has been recorded for this entry: `CCNC(=O)c1ccccc1-c1nc(-c2ccccc2Cl)no1`
A) 94.7%

Q) Look up GFP response vs DMSO for this compound: CCOc1ccc(C(Nc2cccnc2)c2cc(Cl)c3cccnc3c2O)cc1 (configuration not stated)
A) 104%

Q) Dear colleague, I am looking for the recorded GFP response vs DMSO of the following compound: `O=C(Nc1ccccc1O)c1ccc(Cl)cc1`
A) 95.6%

Q) What measured GFP response vs DMSO goes with `CCCCNC(=O)c1c(O)c2cccc3c2n(c1=O)CCC3` ?
A) 98.4%

Q) Form field: reported GFP response vs DMSO of `Cc1ccc(C2=NOC(=O)/C2=C\c2ccc(C)o2)cc1`
A) 89.7%

Q) Find the recorded GFP response vs DMSO belonging to `Cc1noc(/C=C/c2cccnc2)c1[N+](=O)[O-]` and report it.
A) 104%
